This collection of values is drawn from the supplement of paper PMC6555819.

System: PPARg:RXRa (NR concentration 180 nM, RXRa partner concentration 90 nM)
Assay: PBM binding z-score (relative to random genomic background probes); higher = stronger binding; sequences stand for … in GC…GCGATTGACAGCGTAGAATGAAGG
Label rule, in plain words: PBM binding z-score of 7 and up is Yes, under 7 is No.

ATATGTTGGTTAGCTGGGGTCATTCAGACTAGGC
No

Ask: Check if PBM binding z-score >= 7 (inclusive). Item: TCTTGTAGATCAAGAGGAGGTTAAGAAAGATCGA
Reply: No

Ask: Quick check: does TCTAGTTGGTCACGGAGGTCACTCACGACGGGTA have PBM binding z-score greater than or equal to 7?
Reply: No

Ask: Could you please find out whether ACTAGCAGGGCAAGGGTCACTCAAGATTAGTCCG has PBM binding z-score that meets 7 or exceeds it?
Reply: Yes
